All values here come from paper PMC12797170.

Assay: in vitro
Settings: human, plasma
Readings of half-life at 10 µM for the listed compounds

# query: half-life at 10 µM of entry Cc1nc(-c2cccc3c2CCCC3)c2ccn([C@@H]3O[C@H](COP(=O)(O)CP(=O)(O)O)[C@@H](O)[C@H]3O)c2n1 [18E.12] > 2 h

---

Target: CYP3A4 (Homo sapiens, UniProt P08684)
Construct: assay run by Bienta (Enamine Biology Services)
Sequence (P08684 2-503 limits assumed): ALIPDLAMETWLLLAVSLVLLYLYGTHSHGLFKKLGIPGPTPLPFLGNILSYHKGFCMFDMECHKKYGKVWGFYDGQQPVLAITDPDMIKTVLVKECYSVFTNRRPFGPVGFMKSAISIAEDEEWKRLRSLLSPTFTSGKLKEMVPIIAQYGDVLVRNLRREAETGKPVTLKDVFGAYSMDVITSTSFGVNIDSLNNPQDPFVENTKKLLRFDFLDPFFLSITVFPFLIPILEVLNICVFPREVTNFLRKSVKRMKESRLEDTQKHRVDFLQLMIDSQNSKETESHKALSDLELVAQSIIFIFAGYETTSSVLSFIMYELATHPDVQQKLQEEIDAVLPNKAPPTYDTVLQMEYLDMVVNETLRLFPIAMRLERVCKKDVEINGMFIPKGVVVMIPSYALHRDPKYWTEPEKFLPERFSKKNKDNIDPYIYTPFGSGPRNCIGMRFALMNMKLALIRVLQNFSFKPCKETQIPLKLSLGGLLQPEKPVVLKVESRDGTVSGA
Experiment: In vitro CYP450 inhibition assay (Vivid)
Format: biochemical
Conditions: probe fluorogenic Vivid CYP450 substrate (not named)
measure: inhibition at 25 min, 10 µM (%)

Answered examples (2):
| molecule | reported-measurement |
| --- | --- |
| Cc1nc(-c2cccc3ccccc23)c2ccn([C@@H]3O[C@H](COP(=O)(O)CP(=O)(O)O)[C@@H](O)[C@H]3O)c2n1 [18E.6] | 0 |
| O=P(O)(O)CP(=O)(O)OC[C@H]1O[C@@H](n2ccc3c(-c4ccc5ccccc5c4)ncnc32)[C@H](O)[C@@H]1O | -7 |

A: O=P(O)(O)CP(=O)(O)OC[C@H]1O[C@@H](n2ccc3c(-c4cccc5c4CCCC5)nc(Cl)nc32)[C@H](O)[C@@H]1O
B: O=P(O)(O)CP(=O)(O)OC[C@H]1O[C@@H](n2ccc3c(-c4ccc(F)c5ccccc45)nc(Cl)nc32)[C@H](O)[C@@H]1O
Input pair: A , B . Output: entry with lower inhibition at 25 min, 10 µM. // return label of chosen record A
(A: -8%, B: 9%)

---

Assay: Microsomal stability assay, human liver microsomes
Type: in vitro ADME
Conditions: pooled liver microsomes, pH 7.4, read-out: Mics (hu) CLint
measure: microsomal CLint at 10 µM

| molecule | reported-measurement |
| --- | --- |
| O=P(O)(O)CP(=O)(O)OC[C@H]1O[C@@H](n2ccc3c(-c4ccc5cc(OCc6ccccc6)ccc5c4)nc(Cl)nc32)[C@H](O)[C@@H]1O | < 2 µL/min/mg |
| O=P(O)(O)CP(=O)(O)OC[C@H]1O[C@@H](n2ccc3c(-c4cccc5c4OCCC5)ncnc32)[C@H](O)[C@@H]1O | 1 µL/min/mg |
| Nc1nc(-c2ccco2)c2ccn([C@@H]3O[C@H](COP(=O)(O)CP(=O)(O)O)[C@@H](O)[C@H]3O)c2n1 [11C.1] | < 1 µL/min/mg |

Fill in the blank: the reported microsomal CLint at 10 µM of C[C@H](Nc1cc(Cl)nc2c1cnn2[C@@H]1O[C@H](COP(=O)(O)CP(=O)(O)O)[C@@H](O)[C@H]1O)c1ccccc1F [AB680, quemliclustat, reference compound] is ____. < 2 µL/min/mg

Report microsomal CLint at 10 µM for O=P(O)(O)CP(=O)(O)OC[C@H]1O[C@@H](n2cnc3c(-c4cccc5ccccc45)ncnc32)[C@H](O)[C@@H]1O [31A.6] please. < 1 µL/min/mg

Given `O=P(O)(O)CP(=O)(O)OC[C@H]1O[C@@H](n2ccc3c(-c4ccc5cncnc5c4)ncnc32)[C@H](O)[C@@H]1O` , state its recorded microsomal CLint at 10 µM. 4 µL/min/mg

---

Assay: Plasma protein binding, mouse plasma
Format: in vitro ADME
Settings: mouse, plasma, mouse plasma protein binding; read-out: PPB (m) (converted)
measure: fraction unbound at 4 h, 100 µM

| molecule | reported-measurement |
| --- | --- |
| O=P(O)(O)CP(=O)(O)OC[C@H]1O[C@@H](n2ccc3c(-c4cccc5c4CCCC5)nc(F)nc32)[C@H](O)[C@@H]1O [14D.12] | 0.235 |

P: O=P(O)(O)CP(=O)(O)OC[C@H]1O[C@@H](n2ccc3c(-c4ccc5c(c4)CCCC5)ncnc32)[C@@H](F)[C@@H]1O [34A.17]
Q: O=P(O)(O)CP(=O)(O)OC[C@H]1O[C@@H](n2ccc3c(-c4cccs4)ncnc32)[C@H](O)[C@@H]1O [4A.3]
Lab log: flag the item ( P or Q ) with the smaller fraction unbound at 4 h, 100 µM figure. Kindly give the label for the entry you pick. P

---

Test: Microsomal stability assay, human liver microsomes
Assay type: in vitro ADME
Details: pooled liver microsomes, pH 7.4, read-out: Mics (hu) CLint
Each entry below carries its recorded microsomal CLint at 10 µM.

Please review the following examples before continuing.
| molecule | microsomal CLint at 10 µM |
| --- | --- |
| O=P(O)(O)CP(=O)(O)OC[C@H]1O[C@@H](n2ccc3c(-c4cccc5c4CCCC5)nc(F)nc32)[C@H](O)[C@@H]1O [14D.12] | < 1 µL/min/mg |
| Nc1nc(-c2cccc3c2CCCC3)c2ccn([C@@H]3O[C@H](COP(=O)(O)CP(=O)(O)O)[C@@H](O)[C@H]3O)c2n1 [11C.12] | < 1 µL/min/mg |

# get_value(readout='microsomal CLint at 10 µM', item= O=P(O)(O)CP(=O)(O)OC[C@H]1O[C@@H](n2cnc3c(-c4ccc5ccccc5c4)ncnc32)[C@H](O)[C@@H]1O [31A.7] ) < 1 µL/min/mg

Give its microsomal CLint at 10 µM value. Item: `CC1(C)Cc2cc(-c3nc(Cl)nc4c3ccn4[C@@H]3O[C@H](COP(=O)(O)CP(=O)(O)O)[C@@H](O)[C@H]3O)ccc2O1` < 1 µL/min/mg

Would you kindly share the measured microsomal CLint at 10 µM for Nc1nc(-c2ccc3ccccc3c2)c2ccn([C@@H]3O[C@H](COP(=O)(O)CP(=O)(O)O)[C@@H](O)[C@H]3O)c2n1 [11C.7] ? < 1 µL/min/mg

Using the record for `O=P(O)(O)CP(=O)(O)OC[C@H]1O[C@@H](n2ccc3c(-c4ccco4)nc(Cl)nc32)[C@H](O)[C@@H]1O` , report its microsomal CLint at 10 µM. 2 µL/min/mg

Field request: microsomal CLint at 10 µM | item: `O=P(O)(O)CP(=O)(O)OC[C@H]1O[C@@H](n2ccc3c(-c4ccc5c(c4)CCO5)ncnc32)[C@H](O)[C@@H]1O` < 1 µL/min/mg

GET /values?readout=microsomal CLint at 10 µM&item= Nc1nc(-c2cc3ccccc3o2)c2ccn([C@@H]3O[C@H](COP(=O)(O)CP(=O)(O)O)[C@@H](O)[C@H]3O)c2n1 [11C.8] < 1 µL/min/mg

# input molecule: Cc1nc(-c2cccc3c2CCCC3)c2ccn([C@@H]3O[C@H](COP(=O)(O)CP(=O)(O)O)[C@@H](O)[C@H]3O)c2n1 [18E.12] ; wanted: its microsomal CLint at 10 µM < 1 µL/min/mg

Looking for the measured microsomal CLint at 10 µM of `O=P(O)(O)CP(=O)(O)OC[C@H]1O[C@@H](n2ccc3c(-c4cc5ccccc5o4)nc(Cl)nc32)[C@H](O)[C@@H]1O` , can you help? 1 µL/min/mg

Using the record for `O=P(O)(O)CP(=O)(O)OC[C@H]1O[C@@H](n2ccc3c(-c4ccc5cc(Cl)ccc5c4)nc(Cl)nc32)[C@H](O)[C@@H]1O` , report its microsomal CLint at 10 µM. < 2 µL/min/mg

Entry `O=P(O)(O)CP(=O)(O)OC[C@H]1O[C@@H](n2ccc3c(-c4ccnc5ccccc45)ncnc32)[C@H](O)[C@@H]1O` : reported microsomal CLint at 10 µM = ? < 1 µL/min/mg

For the molecule shown here, `O=P(O)(O)CP(=O)(O)OC[C@H]1O[C@@H](n2ccc3c(-c4cccc5c4CCCC5)ncnc32)[C@H](O)[C@@H]1O` , give the reported microsomal CLint at 10 µM. 1 µL/min/mg

---

Assay: Kinetic solubility in PBS
Format: physicochemical
Details: phosphate-buffered saline, pH 7.4, aqueous buffer, kinetic from dmso stock
measure: solubility at 2 h (µM)

| compound | unit-label | solubility at 2 h |
| --- | --- | --- |
| O=P(O)(O)CP(=O)(O)OC[C@H]1O[C@@H](n2ccc3c(-c4ccc5ncccc5c4)ncnc32)[C@H](O)[C@@H]1O | µM | 85 |
| Nc1nc(-c2cccc3c2CCCC3)c2ccn([C@@H]3O[C@H](COP(=O)(O)CP(=O)(O)O)[C@@H](O)[C@H]3O)c2n1 [11C.12] | µM | 88 |

---

Target: recombinant human CD73 (hCD73) (Homo sapiens, UniProt P21589)
Sequence (P21589 27-574): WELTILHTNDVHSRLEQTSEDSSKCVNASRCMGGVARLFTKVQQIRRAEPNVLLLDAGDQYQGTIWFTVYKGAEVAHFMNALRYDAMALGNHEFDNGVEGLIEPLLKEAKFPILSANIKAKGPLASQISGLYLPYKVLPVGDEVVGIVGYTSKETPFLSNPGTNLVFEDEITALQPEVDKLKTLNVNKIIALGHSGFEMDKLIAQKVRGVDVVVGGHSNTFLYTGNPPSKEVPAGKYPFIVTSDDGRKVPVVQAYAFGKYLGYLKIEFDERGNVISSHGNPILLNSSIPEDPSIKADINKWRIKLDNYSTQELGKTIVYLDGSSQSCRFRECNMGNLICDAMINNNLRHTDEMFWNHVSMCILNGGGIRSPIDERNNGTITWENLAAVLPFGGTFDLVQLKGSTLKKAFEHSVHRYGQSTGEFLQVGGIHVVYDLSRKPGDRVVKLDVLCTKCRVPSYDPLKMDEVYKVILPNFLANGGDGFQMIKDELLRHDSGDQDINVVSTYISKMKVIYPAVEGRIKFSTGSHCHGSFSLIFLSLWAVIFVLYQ
Test: CD73 activity assay on recombinant human CD73
Format: biochemical
Details: ΔGexp = RT ln Ki
measure: dG_exp, experimental binding free energy

Some solved cases for reference:
| compound | target-desc | dG_exp, experimental binding free energy |
| --- | --- | --- |
| O=P(O)(O)CP(=O)(O)OC[C@H]1O[C@@H](n2ccc3c(-c4ccnc5ccccc45)ncnc32)[C@H](O)[C@@H]1O | recombinant human CD73 (hCD73) (Homo sapiens, UniProt P21589) | –14.3 kcal/mol |
| O=P(O)(O)CP(=O)(O)OC[C@H]1O[C@@H](n2ccc3c(-c4cccc5ccoc45)ncnc32)[C@H](O)[C@@H]1O | recombinant human CD73 (hCD73) (Homo sapiens, UniProt P21589) | –13.4 kcal/mol |
| O=P(O)(O)CP(=O)(O)OC[C@H]1O[C@@H](n2ccc3c(-c4cc5ccccc5o4)nc(F)nc32)[C@H](O)[C@@H]1O [14D.8] | recombinant human CD73 (hCD73) (Homo sapiens, UniProt P21589) | –14.3 kcal/mol |
| O=P(O)(O)CP(=O)(O)OC[C@H]1O[C@@H](n2ccc3c(-c4cccc5c4CCCC5)ncnc32)[C@H](O)[C@@H]1O | recombinant human CD73 (hCD73) (Homo sapiens, UniProt P21589) | –15.1 kcal/mol |

Item `O=P(O)(O)CP(=O)(O)OC[C@H]1O[C@@H](n2ccc3c(-c4ccc5cncnc5c4)ncnc32)[C@H](O)[C@@H]1O` has what recorded dG_exp, experimental binding free energy? –12.9 kcal/mol

Consider the compound shown here: O=P(O)(O)CP(=O)(O)OC[C@H]1O[C@@H](n2ccc3c(-c4cccc5c4CCCC5)nc(F)nc32)[C@H](O)[C@@H]1O [14D.12] What is its recorded dG_exp, experimental binding free energy? –15.1 kcal/mol

State the recorded dG_exp, experimental binding free energy for this entry: COc1nc(-c2ccc3ccccc3c2)c2ccn([C@@H]3O[C@H](COP(=O)(O)CP(=O)(O)O)[C@@H](O)[C@H]3O)c2n1 [21F.7] –13.4 kcal/mol

Need dG_exp, experimental binding free energy of `O=P(O)(O)CP(=O)(O)OC[C@H]1O[C@@H](n2ccc3c(-c4ccc5c(c4)CCO5)ncnc32)[C@H](O)[C@@H]1O` , thanks. –12.9 kcal/mol
